// data source = paper PMC9090415

assay-target: P. falciparum apicoplast DNA polymerase (Pf-apPOL) (Plasmodium falciparum)
Sequence (Q8ILY1 entry or part of it): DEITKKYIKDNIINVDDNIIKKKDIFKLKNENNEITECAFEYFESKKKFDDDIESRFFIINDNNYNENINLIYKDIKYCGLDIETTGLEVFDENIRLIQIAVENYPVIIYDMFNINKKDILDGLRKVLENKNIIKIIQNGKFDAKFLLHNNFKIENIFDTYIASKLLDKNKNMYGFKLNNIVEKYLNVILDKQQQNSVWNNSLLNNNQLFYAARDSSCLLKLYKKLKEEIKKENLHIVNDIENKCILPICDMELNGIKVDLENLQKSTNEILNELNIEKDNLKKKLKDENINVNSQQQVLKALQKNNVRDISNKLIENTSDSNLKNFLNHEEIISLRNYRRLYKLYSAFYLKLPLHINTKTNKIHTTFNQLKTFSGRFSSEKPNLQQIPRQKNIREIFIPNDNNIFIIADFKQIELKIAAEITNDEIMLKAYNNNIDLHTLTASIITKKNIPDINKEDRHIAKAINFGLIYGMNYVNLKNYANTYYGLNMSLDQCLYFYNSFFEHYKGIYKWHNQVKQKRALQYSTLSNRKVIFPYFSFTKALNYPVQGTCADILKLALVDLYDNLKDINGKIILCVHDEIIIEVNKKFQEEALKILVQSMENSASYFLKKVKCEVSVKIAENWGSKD
experiment: Fluorescence-based high-throughput DNA polymerase assay (molecular beacon), primary screen and dose-response;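 further: compound concentration given in µM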
Type: biochemical
experimental-context: DRC-2; 40'; conc 20
Excerpt: The HT assay employs a molecular beacon, a stem-loop DNA template with a Cy3 dye and the Black Hole Quencher on the 3′ and 5′ ends of the DNA, respectively. Pf-apPOL concentration is based on a calculated absorptivity of ε280 = 56750 M^−1 cm^−1. […] To identify apPOL inhibitors we utilised our previously developed high-throughput DNA polymerase assay. […] The assay accurately recapitulates the kinetic behaviour of apPOL, as measured through more conventional low-throughput gel-based assays. […]
test-readout: % inhibition Apol 40' (%)
Your answer is read as %, so omit the unit and give the number.

molecule	assay-target	output-unit	% inhibition Apol 40'
CCOc1nc2cccc(C(=O)OC(C)OC(=O)OC3CCCCC3)c2n1Cc1ccc(-c2ccccc2-c2nnn[nH]2)cc1 (stereo not drawn) [Molecule 94]	P. falciparum apicoplast DNA polymerase (Pf-apPOL) (Plasmodium falciparum)	%	71

Q) Tell me measured % inhibition Apol 40' for O=c1nc(/C=C/c2ccc(Br)cc2)oc2ccccc12 [KU0052629] please.
A) 48

Q) Tell me measured % inhibition Apol 40' for C=CC1=C(C)c2cc3[nH]c(cc4nc(cc5[nH]c(cc1n2)c(C)c5CCC(=O)O)C(CCC(=O)O)=C4C)c(C)c3C=C [Molecule 91] please.
A) 70
